Listed next: entries and their corresponding pIC50.
- testedOn: UniProtKB O43614
- testDescription: In vitro assay: intracellular calcium measurements (FLIPR), antagonistic activity
- setupConditions: CHO cells expressing human orexin-2 receptor, orexin-A agonist, geometric mean, read-out: IC50 Ox2
pIC50: −log10 of the molar value.
experimentalEndpoint: pIC50

1. C=C1C[C@@H](c2nc3cc(C)c(C)cc3[nH]2)N(C(=O)c2ccccc2-n2nccn2)C1 [Ex. 6.194] :: 8.30
2. Cc1nc(C(=O)N2CCC[C@@]2(C)c2nc3c(C)c(C)c(Br)cc3[nH]2)c(-c2ccc(C)c(C)c2)s1 [Ex. 5.273] :: 7.92
3. COc1cc2nc([C@]3(C)CCCN3C(=O)c3nc(C)sc3-c3ccc(F)cc3)[nH]c2cc1OC [Ex. 5.78] :: 7.14
4. CSc1ccc2nc([C@@H]3CCCN3C(=O)c3nc(C4CC4)sc3-c3ccccc3)[nH]c2c1 [Ex. 1.35] :: 7.00

----------
- testedOn: human orexin-2 receptor (Homo sapiens (Human), UniProt O43614)
- Sequence (O43614 whole entry): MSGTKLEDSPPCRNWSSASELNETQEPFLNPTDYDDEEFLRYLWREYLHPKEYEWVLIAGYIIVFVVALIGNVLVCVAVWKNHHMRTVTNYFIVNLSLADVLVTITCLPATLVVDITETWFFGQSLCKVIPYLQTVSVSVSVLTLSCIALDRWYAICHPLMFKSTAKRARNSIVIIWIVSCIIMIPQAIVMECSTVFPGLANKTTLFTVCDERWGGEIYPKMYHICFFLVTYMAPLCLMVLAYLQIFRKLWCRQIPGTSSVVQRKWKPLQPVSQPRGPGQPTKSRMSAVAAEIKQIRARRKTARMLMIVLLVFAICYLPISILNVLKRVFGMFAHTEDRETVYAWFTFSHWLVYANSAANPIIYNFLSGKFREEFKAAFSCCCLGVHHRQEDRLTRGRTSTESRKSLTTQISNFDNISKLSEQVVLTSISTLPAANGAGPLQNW
- testDescription: In vitro assay: intracellular calcium measurements (FLIPR), antagonistic activity
- setupConditions: CHO cells expressing human orexin-2 receptor, orexin-A agonist, geometric mean, read-out: IC50 Ox2
Please assign Not met whenever IC50 is at or above 20 nM, and Met whenever it is below.

1. CSc1ccc2nc([C@@H]3CCCN3C(=O)c3nc(C)sc3-c3cccc(Cl)c3Cl)[nH]c2c1 [Ex. 1.36] :: Not met
2. Cc1ccc(-n2cccn2)c(C(=O)N2CC[C@H](C)[C@H]2c2nc3c(C)cc(Cl)cc3[nH]2)c1 [Ex. 4.95] :: Not met
3. Cc1ccc(-n2nccn2)c(C(=O)N2CC[C@H](C)[C@H]2c2nc3cc(Cl)cc(C)c3[nH]2)c1 [Ex. 4.39] :: Not met
4. C=C1C[C@@H](c2nc3cc(Cl)c(C(F)(F)F)cc3[nH]2)N(C(=O)c2c(F)cccc2-n2nccn2)C1 [Ex. 6.175] :: Met
5. Cc1nc(C(=O)N2CCCC2c2nc3cc(C(F)(F)F)c(F)cc3[nH]2)c(-c2cccc(Cl)c2)s1 (stereo not shown) [Ex. 1.111] :: Not met
6. C=C1CN(C(=O)c2nc(C)sc2-c2cccc(Cl)c2)C(C)(c2nc3cc(OC)ccc3[nH]2)C1 (stereo not shown) [Ex. 6.153] :: Met
7. COc1ccc(-c2ccc(C)cc2C(=O)N2CCC[C@@]2(C)c2nc3c(C)c(C)ccc3[nH]2)cc1 [Ex. 5.112] :: Met

----------
Listed next: entries and their corresponding log10 of IC50.
- testedOn: human orexin-2 receptor (Homo sapiens (Human), UniProt O43614)
- testDescription: In vitro assay: intracellular calcium measurements (FLIPR), antagonistic activity
- setupConditions: CHO cells expressing human orexin-2 receptor, orexin-A agonist, geometric mean, read-out: IC50 Ox2
experimentalEndpoint: log10 of IC50 (log10 of the value in nM)

1. Cc1cc(C)c2nc([C@@H]3CCCN3C(=O)c3nc(C)sc3-c3ccccc3)[nH]c2c1 :: 1.11
2. C=C1C[C@@H](c2nc3cc(Cl)c(C(F)(F)F)cc3[nH]2)N(C(=O)c2c(C)cccc2-n2nccn2)C1 :: 1.32
3. Cc1ccc(-n2nccn2)c(C(=O)N2C[C@H](F)C[C@H]2c2nc3c(C)cccc3[nH]2)c1 :: 2.09
4. Cc1c(Cl)ccc2[nH]c([C@]3(C)CCCN3C(=O)c3ccccc3-n3cccn3)nc12 :: 1.88
5. Cc1cccc(-c2ccccc2C(=O)N2CCC[C@@]2(C)c2nc3c(C)c(C)ccc3[nH]2)c1 :: 1.54
6. C[C@@]1(c2nc3cc(C(F)(F)F)ccc3[nH]2)CCCN1C(=O)c1cc(Br)ccc1-c1ccccc1 :: 0.00
7. C=C1CC(c2nc3c(OC)ccc(OC)c3[nH]2)N(C(=O)c2cc(C)sc2-c2ccc(C)c(C)c2)C1 (racemic) :: 1.36

----------
- testedOn: human orexin-2 receptor (Homo sapiens (Human), UniProt O43614)
- testDescription: In vitro assay: intracellular calcium measurements (FLIPR), antagonistic activity
- setupConditions: CHO cells expressing human orexin-2 receptor, orexin-A agonist, geometric mean, read-out: IC50 Ox2
- Procedure: In Vitro Assay: Intracellular Calcium Measurements: […] Within the Fluorescent Imaging Plate Reader (FLIPR Tetra, Molecular Devices), antagonists are added to the plate in a volume of 10 μl/well, incubated for 120 min and finally 10 μl/well of agonist is added. […] The calculated IC50 values may fluctuate depending on the daily cellular assay performance. […]
pIC50: −log10 of the molar value.
Listed next: entries and their corresponding pIC50.
experimentalEndpoint: pIC50

1. Cc1nc(C(=O)N2CCCC2c2nc3cc(OC(F)(F)F)ccc3[nH]2)c(-c2cccc(Cl)c2)s1 (stereo not drawn) [Ex. 1.108] :: 6.08
2. Cc1ccc(-c2ccc(F)cc2)c(C(=O)N2CCC[C@@]2(C)c2nc3cc(C)c(C)cc3[nH]2)c1 [Ex. 5.96] :: 7.49
3. C=C1C[C@@H](c2nc3cc(C)c(C)cc3[nH]2)N(C(=O)c2cc(Cl)ccc2-n2nccn2)C1 [Ex. 6.193] :: 8.40
4. C=C1C[C@@H](c2nc3cc(C(C)(C)C)ccc3[nH]2)N(C(=O)c2nc(C)ccc2-n2cccn2)C1 [Ex. 6.173] :: 7.19
5. C=C1C[C@@H](c2nc3cc(Cl)c(C(F)(F)F)cc3[nH]2)N(C(=O)c2ccc(C)cc2-n2nccn2)C1 [Ex. 6.182] :: 8.22
6. C=C1C[C@@H](c2nc3cc(SC)ccc3[nH]2)N(C(=O)c2nc(C)sc2-c2ccc(C)c(C)c2)C1 [Ex. 6.52] :: 8.70
7. Cc1ccc(C(=O)N2CCC[C@@]2(C)c2nc3c(F)c(F)ccc3[nH]2)c(-n2nccn2)c1 [Ex. 5.202] :: 6.03
8. Cc1nc(C(=O)N2CCCC2c2nc3cc(C(C)(C)C)ccc3[nH]2)c(-c2ccccc2)s1 (stereo not drawn) [Ex. 1.124] :: 7.38
9. CSc1cccc2nc([C@@H]3CCCN3C(=O)c3nc(C4CC4)sc3-c3ccc(F)cc3)[nH]c12 [Ex. 1.70] :: 7.59
10. COc1cccc(-c2ccc(C)cc2C(=O)N2CCC[C@@]2(C)c2nc3cc(C(F)(F)F)c(Cl)cc3[nH]2)c1 [Ex. 5.149] :: 7.59
11. CO[C@@H]1C[C@@H](c2nc3ccc(Cl)c(C)c3[nH]2)N(C(=O)c2nc(C)sc2-c2ccc(Cl)cc2)C1 [Ex. 3.35] :: 8.40
12. COc1cc2nc([C@]3(C)CCCN3C(=O)c3cc(C(F)(F)F)ccc3-n3nccn3)[nH]c2cc1OC [Ex. 5.71] :: 7.66
13. Cc1ccc(-c2cccc(OC(F)(F)F)c2)c(C(=O)N2CCC[C@@]2(C)c2nc3cc(C(F)(F)F)ccc3[nH]2)c1 [Ex. 5.184] :: 6.38
14. COc1cc(C(=O)N2CCC[C@@]2(C)c2nc3cc(OC)c(OC)cc3[nH]2)c(-n2nccn2)cc1OC [Ex. 5.86] :: 7.07
15. C=C1C[C@@H](c2nc3cc(OC)ccc3[nH]2)N(C(=O)c2nc(C)sc2-c2ccc(C)c(C)c2)C1 [Ex. 6.9] :: 8.40

----------
Listed next: entries and their corresponding IC50.
- testedOn: human orexin-2 receptor (Homo sapiens (Human), UniProt O43614)
- testDescription: In vitro assay: intracellular calcium measurements (FLIPR), antagonistic activity
- setupConditions: CHO cells expressing human orexin-2 receptor, orexin-A agonist, geometric mean, read-out: IC50 Ox2
experimentalEndpoint: IC50

1. Cc1ccc(C(=O)N2CC[C@H](C)[C@H]2c2nc3cc(Cl)c(C)cc3[nH]2)c(-c2ccccc2)c1 :: 110 nM
2. Cc1ccc(C(=O)N2CCC[C@@]2(C)c2nc3c(C)c(Cl)ccc3[nH]2)c(-n2nccn2)c1 :: 12 nM
3. Cc1ccc(-n2nccn2)c(C(=O)N2CC[C@H](C)[C@H]2c2nc3c(C(C)C)cccc3[nH]2)c1 :: 756 nM
4. C=C1C[C@@H](c2nc3c(SC)cccc3[nH]2)N(C(=O)c2nc(C)sc2-c2ccc(C)c(C)c2)C1 :: 1 nM

----------
- testedOn: human orexin-1 receptor (Homo sapiens (Human))
- Sequence (O43613 whole entry): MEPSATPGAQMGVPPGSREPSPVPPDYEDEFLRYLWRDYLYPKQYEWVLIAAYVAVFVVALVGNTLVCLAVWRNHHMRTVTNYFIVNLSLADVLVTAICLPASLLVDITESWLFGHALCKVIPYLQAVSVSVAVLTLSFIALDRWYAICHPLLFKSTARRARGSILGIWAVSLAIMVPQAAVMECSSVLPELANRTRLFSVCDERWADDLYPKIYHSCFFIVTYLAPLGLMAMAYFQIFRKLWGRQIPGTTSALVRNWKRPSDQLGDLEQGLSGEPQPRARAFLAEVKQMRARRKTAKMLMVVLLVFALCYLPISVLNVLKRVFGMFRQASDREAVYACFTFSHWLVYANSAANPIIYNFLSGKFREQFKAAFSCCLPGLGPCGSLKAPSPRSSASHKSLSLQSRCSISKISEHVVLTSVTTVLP
- testDescription: In vitro assay: intracellular calcium measurements (FLIPR), antagonistic activity
- setupConditions: CHO cells expressing human orexin-1 receptor, orexin-A agonist, geometric mean, read-out: IC50 Ox1
Listed next: entries and their corresponding log10(IC50).
experimentalEndpoint: log10(IC50) (log10 of the value in nM)

1. COc1cc2nc([C@@H]3[C@@H](C)CCN3C(=O)c3nc(C)sc3-c3ccc(F)cc3)[nH]c2cc1OC :: 1.32
2. Cc1ccc(-n2nccn2)c(C(=O)N2CCC[C@@]2(C)c2nc3c(C(C)C)cccc3[nH]2)c1 :: 1.11
3. Cc1nc(C(=O)N2CC[C@H](C)[C@H]2c2nc3c(CO)cccc3[nH]2)c(-c2cccc(Cl)c2)s1 :: 1.15
4. CSc1ccc2nc([C@@H]3CCCN3C(=O)c3nc(C)sc3-c3cccc(C(F)(F)F)c3)[nH]c2c1 :: 2.56
5. COc1cc(C(=O)N2CCC[C@@]2(C)c2nc3cc(OC)c(OC)cc3[nH]2)c(-n2nccn2)cc1OC :: 1.97
6. Cc1ccc(-n2nccn2)c(C(=O)N2CCC[C@@]2(C)c2nc3c(F)c(F)ccc3[nH]2)c1 :: 1.66
7. Cc1ccc(-c2ccc(F)cc2)c(C(=O)N2CCC[C@@]2(C)c2nc3cc(C(F)(F)F)c(Cl)cc3[nH]2)c1 :: 1.38
